Cited source: patent US20110142842A1

Below: a set of entries, each annotated with reported % Pass/fail control.
measured.on: HLA-A*0201 (human, UniProt A*02:01)
assay.name: REVEAL MHC binding assay (ProImmune)

Consider the following illustrative entries.
1. LLMSFFILL [Peptide ID 27 LLMSFFILL (CD53)] :: 189 % of pass/fail control
2. SICEGTVEV [Peptide ID 59 SICEGTVEV (CD5)] :: 130 % of pass/fail control
3. VLDIYGFEV [Peptide ID 18 VLDIYGFEV (HA-2)] :: 161 % of pass/fail control
4. HLYGSNASL [Peptide ID 38 HLYGSNASL (CD11a)] :: 135 % of pass/fail control
5. SMEEAKQLV [Peptide ID 71 SMEEAKQLV (MPO)] :: 169 % of pass/fail control
6. LLIPAGIYV (Modified peptide) [Peptide ID 136 LLIPAGIYV (CD20, modified peptide)] :: 275 % of pass/fail control
7. ILFAFVSSV [Peptide ID 25 ILFAFVSSV (FLT3)] :: 221 % of pass/fail control
8. HMRPLAIWL [Peptide ID 106 HMRPLAIWL (CD19)] :: 56.2 % of pass/fail control

Problem: What value of measured % Pass/fail control is listed for VIVGSIIMV [Peptide ID 110 VIVGSIIMV (CD53)] ?
Result: 113 % of pass/fail control

Problem: Same question for LLDPKLCYL [Peptide ID 13 LLDPKLCYL (TCR_TV)] please.
Result: 204 % of pass/fail control

Problem: Another: SLSEEVTYV (Modified peptide) [Peptide ID 145 SLSEEVTYV (CLL-1, modified peptide)]
Result: 191 % of pass/fail control

Problem: Another binder to look at: ILLLVIWKA [Peptide ID 130 ILLLVIWKA (CD18)]
Result: 56.7 % of pass/fail control

Problem: Please give the result for YLMDLSYSM [Peptide ID 21 YLMDLSYSM (CD18)] too.
Result: 198 % of pass/fail control

Problem: Also LLLSGAARA [Peptide ID 51 LLLSGAARA (PR3)] ?
Result: 178 % of pass/fail control

Problem: Also need FLVNTVLWV [Peptide ID 12 FLVNTVLWV (CD64)] , thanks.
Result: 133 % of pass/fail control

Problem: Continue with GMGWAAFNL [Peptide ID 45 GMGWAAFNL (CD50)]
Result: 193 % of pass/fail control
